The values you see were collected from the DeepSol protein solubility set.

method: soluble on expression in E. coli; label from the status in PepcDB or PDB records
measure-name: soluble on expression in E. coli

Answered examples (5):
MGSDKIHHHHHHVYTIARLHNFGCAFLYSPLTYPLYRSWLRTLTIKGNIIAIGASVADKPVGLALAEILRDGSAKLLSIFVDPNSRCLGIGTALVHSLEEELILRNCTSIEIVYIAGKSTSLALECLLKKCNWPSAKPRMLICKTTTNDMTNAPWMKLSRMPAAYEIFPWMEITFQERVALKKQQEEKRWMASDAIPFDYEQDLEPINSIGLRYKGEVVGWLITHRTAPDTIRYTCSYVRPDIQKMGRIIPLYIRATQLQMEAGISRGTWTVSLMHTSMIAFVKKHMGPYLISLEQSMESSKLLSHL ... not soluble
MSTDLQHIRIGLTNNHPCSYLPERQERVAVALDAELHTEQNYQLLMANGFRRSGDTIYKPHCERCHACQPIRISIPDFVLSRSQKRLLSKAKSLRWEMKTEMDAEWFELYSRYICKRHKNGTMYPPKRDEFSRFAQTTWLTTLFLHIYDESNQLLGVAVTDVMAQCSSAFYTFFEPDYPLSLGTLAVLYQVNYCQQNNEQWLYLGYQIDECPAMNYKTRFQRHQRLVNQRWQGLEHHHHHH ... soluble
MIITDDHMHLYNHLKLKALEQFRDAGGTHVFLVNLLCHHYGIRPTSGKDFREVFERHLSLVEKANKIVKAYAVLGVHPAEITVIGDRIGHEKAAEMMKEALEIAGKYVEEGKAVALKSGRPHYPVSRHVWQLSNDVLRHAFEVAKDVGCAIQLHTESYTKEGMLEIAKMADEVGLKREKVVKHFSPPLIKEFEEIGIFPSVLAGNNNVLKAAEQGNRFTVETDYIDDRKRPGAVLGPKTVPRKVKELIELGYEDIAYKICVENVEKVYGV ... not soluble
RAATQVGATTMDRPEWVAVHPDKKHVFCTLTNNKNRGKEGQPVGGPNPREKNNYGQIVRWMPAQGDHTSDVFAWDLYLIAGNPTVHKGTLYAGSENISADNMFNSPDGIGFDTAGRLWIQTDGNYSNQGDFAGQGNNQMLCGDPITGEVKRFLTGPIACEITGLTFSPDHKTMFVG ... not soluble
SDSAFANLDAAGFLQIWQHFDADDNGYIEGKELDDFFRHMLKKLQPKDKITDERVQQIKKSFMSAYDATFDGRLQIEELANMILPQEENFLLIFRREAPLDNSVEFMKIWRKYDADSSGYISAAELKNFLKDLFLQHKKKIPPNKLDEYTDAMMKIFDKNKDGRLDLNDLARILALQENFLLQFKMDASSQVERKRDFEKIFAHYDVSRTGALEGPEVDGFVKDMMELVRPSISGGDLDKFRECLLTHCDMNKDGKIQKSELALCLGLKHKP ... soluble

Consider the sequence MSGGSDQVKNMIYINGNRRGHCFITSGITFKEFASNIPSPLHQVLLLKHNFEWTDFHYHTLFEYVEEENIHKLIQAEIDEFDEFCWVDFDDASDLDELEPKEIAELLYLAHKKEPLARTFFPLLKNRFVYFSHDDGWYNKVYYRRIADFVGMLSKVIPYKLGAFGKKRFSFFQKSKIFPAISKELIMGLIPLMEDGLYIDLAGKIESRRGLEIPVYVVGSYESTDEVLDNIDELKEEATETGWLIFDKKEQEWQWVVD and give its measured soluble on expression in E. coli. not soluble

Thanks! And MKRKKPTIHDVAAKAGVGLGTVSRVLNDHPAVRHETRARVLRAMEELGYAPNPHARRIAGGRSYTVSVLLPFVATEFYRRLVEGIEGVLLEQRYDLALFPILSLARLKRYLENTTLAYLTDGLILASYDLTERFEEGRLPTERPVVLVDAQNPRYDSVYLDNRLGGRLAGAYLARFPGPIFAIAVEEEPDRAFRRTVFAERMAGFQEALKEAGRPFSPDRLYITRHSQEGGRLALRHFLEKASPPLNVFAGADQV ? soluble

Try MLIDTDFFLSNRSDSLVLDVRSPEEYRRGHIPGAESFPLFSDAERAEVGTLYVRHSRQAAVERGLEFVGPRMAEMVREARSLAAGRDIILYCWRGGMRSESVAWLLSVAGLRIRRLRGGYKAYRRHFPDILKLYPWRFIVLGGYTGSGKTPILNELTQMGEQVIDLEGLAHHKGSAFGALGQEQQPTTEHFMNLLHDALSACDPNRPIWVESESKTIGRVFLPDDFYKVMRQAPLIELSVPRPVRIAHIAKEYGVYDAEALANSFEHIARRMGGAATTQAITALKEGRLEEAVSLALDYYDKAYAHSLAEFRESSSARLAVETDTPHETAIKLLELSHIKGLQS next. not soluble

Can you check MQFGIFTIGDVTVDPTTGKAPTEGERIHAMTQIALKAEEVGLDVFATGEHHNPPFVPSSPTTHLAYIAAKTEKLLLSTSTTLITTNDPVKIAEDYTFLQHLSGGRVDLMMGRGNTGPVYPWFGKDIHQGIPLAIENYHLLRRLWREDVVNWQGKFRTPLQGYTSTPAPLDGVAPFVWHGSIRSTEIAEQAAFYGDGFFHNNIFWNKEHTAQMVNLYRQRFEHYGHGQADQAIVGLGGQVFIGDSEEEAKKTFRPYFDNAPVYGHGPSLEDFSRLTPLTVGTAEQVIERTMEFADWVGDYQRQLFLIDHAGLPLEMVLDQIERLGHDVVPEVRRRMEERRPDHVPSNPPTHQSLKANRNSPHFQINPGQPTE next? not soluble

Do the same for MGSDKIHHHHHHMHISNMDGLDILSLKILVSLYENKSATYVSKALDIPAPKISRSLKNLREIFGDELFIRRKYGLFPNEFATHLYPIAKEAIECTDKFHKARAANANLVKTHIEIAAPGLIAYAFPKALMQAIKDEQKLMHINITPWSMHTTQDIINGDTTLGICCNKSTADVAAFGDKLLTTTLQSMDKVYLLASRNHPIFKREITLETIAEYPYVNTDLGNPSSKLSPYQEFCLKSNIKLNTEITITSISSLFEYLGESQALSLLPYRVVYEMVSDVAELHTCQLSQLEAERLYAHAEAPTIFLVQKNQPNKVNDDLVWLSGQIKKIVDHII please not soluble
